- Test system: HIV-1 L100I mutant strain
- methodNotes: microbe, parasite or virus in culture
- Assay type: cell-based
- testContext: Human immunodeficiency virus 1, MT4, read-out: EC50 L100I
reportedProperty: pEC50
Give bare numbers, as −log10 of the molar value.

// known answers, use as guide
// lookup pEC50 | system=HIV-1 L100I mutant strain | key= Cc1cc(/C=C/C#N)cc(C)c1Oc1nc(Nc2ccc(B3OC(C)(C)C(C)(C)O3)cc2)nc2ccsc12
6.73

Try this molecule too: O=C1Nc2ccc(Cl)cc2[C@@](C#CC2CC2)(C(F)(F)F)O1 [EFV, efavirenz, reference compound]
7.49

Hey, quick one: what's pEC50 for each of these?
1. Cc1cc(/C=C/C#N)cc(C)c1Oc1nc(Nc2ccc(B3OC(C)(C)C(C)(C)O3)cc2)nc2c1COC2
2. Cc1ccnc2c1NC(=O)c1cccnc1N2C1CC1 [NVP, nevirapine, reference compound]
3. Cc1cc(C#N)cc(C)c1Oc1nc(Nc2ccc(C#N)cc2)nc(N)c1Br [ETR, etravirine, reference compound]

6.26
6.21
8.10

# batch size: 3; output pEC50 per entry
1. Cc1cc(/C=C/C#N)cc(C)c1Oc1nc(Nc2ccc(B3OC(C)(C)C(C)(C)O3)cc2)nc2sccc12
2. Cc1cc(C#N)cc(C)c1Oc1nc(Nc2ccc(B3OC(C)(C)C(C)(C)O3)cc2)nc2ccsc12
3. Cc1cc(C#N)cc(C)c1Oc1nc(Nc2ccc(B3OC(C)(C)C(C)(C)O3)cc2)nc2c1COC2

1: 6.55; 2: 5.60; 3: 5.61

The values you see were collected from paper PMC9657321.
